Data provenance: patent US10286038B2

- experimental.system: recombinant GC (Cerezyme) (Homo sapiens, UniProt P04062, R534H)
- Construct: purchased Genzyme Therapeutics, Boston, USA
- Sequence (P04062 40-536 R534H): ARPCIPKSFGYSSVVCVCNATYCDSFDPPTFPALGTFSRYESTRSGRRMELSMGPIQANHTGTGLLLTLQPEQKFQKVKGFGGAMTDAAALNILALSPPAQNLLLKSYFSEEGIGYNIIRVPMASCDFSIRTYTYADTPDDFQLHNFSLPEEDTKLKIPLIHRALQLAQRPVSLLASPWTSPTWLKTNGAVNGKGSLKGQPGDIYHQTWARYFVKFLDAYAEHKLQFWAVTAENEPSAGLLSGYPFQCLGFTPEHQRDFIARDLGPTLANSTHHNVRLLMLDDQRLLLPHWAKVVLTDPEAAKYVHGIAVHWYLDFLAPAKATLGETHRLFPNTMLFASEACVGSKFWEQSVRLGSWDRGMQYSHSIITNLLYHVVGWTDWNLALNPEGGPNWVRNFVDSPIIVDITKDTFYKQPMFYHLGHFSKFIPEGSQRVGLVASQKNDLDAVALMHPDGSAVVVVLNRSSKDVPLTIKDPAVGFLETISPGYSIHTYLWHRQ
- assay.info: recombinant GC activity assay
- Type: biochemical
- stated.conditions: tenfold molar excess of peptide, acid pH, relative to buffer control
observable: increase of recombinant GC enzyme activity

{"substance": "Biotin-Ttds-KFERQLREIIEAMLKAYQQKLFVTHTVDEYGRKKRRQRRR [helix 5 TAT-peptide]", "recorded.measurement": "comparable effect"}
{"substance": "Biotin-Ttds-KFERQLREDDEAMDKAYQQKLFVTHTVDEYGRKKRRQRRR [control 3×D TAT-peptide, reference compound]", "recorded.measurement": "comparable effect"}
